Numbers sourced from patent US20240376200A1.

- target: recombinant Antigen 1 (recombinant Ab1 target; recombinant integrin αvβ6 antigen)
- Sequence (P06756 31-992, chain 1 of 2): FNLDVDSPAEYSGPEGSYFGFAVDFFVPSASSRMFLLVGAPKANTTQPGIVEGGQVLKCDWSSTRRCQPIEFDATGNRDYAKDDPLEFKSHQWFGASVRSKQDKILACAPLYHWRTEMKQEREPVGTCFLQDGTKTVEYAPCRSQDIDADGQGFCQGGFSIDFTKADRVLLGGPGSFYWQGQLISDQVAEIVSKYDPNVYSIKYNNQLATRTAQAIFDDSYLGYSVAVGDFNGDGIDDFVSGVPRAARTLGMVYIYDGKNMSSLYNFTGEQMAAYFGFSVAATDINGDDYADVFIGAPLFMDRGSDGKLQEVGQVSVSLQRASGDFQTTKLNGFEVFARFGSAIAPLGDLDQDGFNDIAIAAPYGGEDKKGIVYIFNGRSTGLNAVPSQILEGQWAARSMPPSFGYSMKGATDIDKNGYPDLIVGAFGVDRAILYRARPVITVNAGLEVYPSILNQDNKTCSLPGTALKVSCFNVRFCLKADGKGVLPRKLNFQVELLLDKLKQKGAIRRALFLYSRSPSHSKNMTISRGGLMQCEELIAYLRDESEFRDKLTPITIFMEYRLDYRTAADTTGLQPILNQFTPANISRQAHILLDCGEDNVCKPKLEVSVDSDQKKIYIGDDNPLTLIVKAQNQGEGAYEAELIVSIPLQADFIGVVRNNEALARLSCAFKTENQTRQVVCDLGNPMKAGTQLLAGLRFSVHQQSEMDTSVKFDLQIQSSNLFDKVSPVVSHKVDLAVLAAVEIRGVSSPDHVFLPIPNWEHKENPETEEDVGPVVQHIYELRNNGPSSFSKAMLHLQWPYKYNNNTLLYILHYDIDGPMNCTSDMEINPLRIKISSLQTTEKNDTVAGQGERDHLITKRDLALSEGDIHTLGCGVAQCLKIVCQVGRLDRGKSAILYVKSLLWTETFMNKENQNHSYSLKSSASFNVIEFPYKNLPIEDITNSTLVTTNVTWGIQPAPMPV
- Sequence (P18564 22-709, chain 2 of 2, further chain): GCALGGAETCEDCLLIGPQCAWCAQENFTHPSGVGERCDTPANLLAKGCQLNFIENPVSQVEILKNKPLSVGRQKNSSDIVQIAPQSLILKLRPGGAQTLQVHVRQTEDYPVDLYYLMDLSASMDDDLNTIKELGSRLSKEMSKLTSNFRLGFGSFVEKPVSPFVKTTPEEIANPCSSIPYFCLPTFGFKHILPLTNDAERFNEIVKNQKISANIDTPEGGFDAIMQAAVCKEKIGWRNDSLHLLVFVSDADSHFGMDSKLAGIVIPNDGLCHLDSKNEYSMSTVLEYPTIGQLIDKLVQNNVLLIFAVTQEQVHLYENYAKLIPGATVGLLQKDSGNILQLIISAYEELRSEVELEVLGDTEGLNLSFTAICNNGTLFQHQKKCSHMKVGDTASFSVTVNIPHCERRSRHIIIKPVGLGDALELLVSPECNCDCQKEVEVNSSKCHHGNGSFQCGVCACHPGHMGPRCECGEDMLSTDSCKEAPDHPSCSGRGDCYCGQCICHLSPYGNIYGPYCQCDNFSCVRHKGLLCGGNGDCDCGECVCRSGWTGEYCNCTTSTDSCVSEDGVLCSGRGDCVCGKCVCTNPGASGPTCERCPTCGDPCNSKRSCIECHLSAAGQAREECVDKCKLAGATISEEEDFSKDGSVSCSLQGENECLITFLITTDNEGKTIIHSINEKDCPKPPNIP
- assay explanation: saturation binding ELISA
recorded endpoint: Binding Bmax (OD450)
Lab note: write values as number then unit, every time.

Reported Binding Bmax (OD450) for Vel-IPV-Ab1 Coil 138 (antibody, part only; not given: Ab1 heavy and light chains, part only) heavy, part: QGASTSVDELQAEVDQLEDENYALKTKLAQLRKKVEKLGSIPVSLRSG light, part: QGASTTVAQLEEKVKTLRAENYELKSEIQRLEEQVAQLGSIPVSLRSG : what is it?
1.8 OD450

For the binder Vel-IPV-Ab1 Coil 137 (antibody, part only; not given: Ab1 heavy and light chains, part only) heavy, part: QGASTSVDELQAEVDQLEDENYAVKTKVAQLRKKVEKLGSIPVSLRSG light, part: QGASTTVAQLEEKVKTLRAENYELKSEVQRLEEQVAQLGSIPVSLRSG , what Binding Bmax (OD450) is on record?
1.2 OD450

State the recorded Binding Bmax (OD450) for this entry: Vel-IPV-Ab1 Coil 114 (antibody, part only; not given: Ab1 heavy and light chains, part only) heavy, part: QGASTSVDELQAEVDQLEDENYAWKTKVAQLRKKVEKLGSIPVSLRSG light, part: QGASTTVAQLEEKVKTLRAENYEFKSEVQRLEEQVAQLGSIPVSLRSG
1.1 OD450

Quick check: Binding Bmax (OD450) of Vel-IPV-Ab1 Coil 116 (antibody, part only; not given: Ab1 heavy and light chains, part only) heavy, part: QGASTSVDELQAEVDQLEDENYAAKTKVAQLRKKVEKLGSIPVSLRSG light, part: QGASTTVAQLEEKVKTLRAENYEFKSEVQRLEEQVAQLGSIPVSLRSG ?
0.7 OD450

Please look up its Binding Bmax (OD450): Vel-IPV-Ab1 Coil 117 (antibody, part only; not given: Ab1 heavy and light chains, part only) heavy, part: QGASTSVDELQAEVDQLEDENYAFKTKVAQLRKKVEKLGSIPVSLRSG light, part: QGASTTVAQLEEKVKTLRAENYEWKSEVQRLEEQVAQLGSIPVSLRSG
1.1 OD450

Given the binder Vel-IPV-Ab1 Coil 126 (antibody, part only; not given: Ab1 heavy and light chains, part only) heavy, part: QGASTSVDELQAEVDQLEDENYAYKTKVAQLRKKVEKLGSIPVSLRSG light, part: QGASTTVAQLEEKVKTLRAENYESKSEVQRLEEQVAQLGSIPVSLRSG , what is its reported Binding Bmax (OD450)?
0.7 OD450

For the binder Vel-IPV-Ab1 Coil 118 (antibody, part only; not given: Ab1 heavy and light chains, part only) heavy, part: QGASTSVDELQAEVDQLEDENYAFKTKVAQLRKKVEKLGSIPVSLRSG light, part: QGASTTVAQLEEKVKTLRAENYESKSEVQRLEEQVAQLGSIPVSLRSG , what Binding Bmax (OD450) is on record?
0.8 OD450

Item Vel-IPV-Ab1 Coil 111 (antibody, part only; not given: Ab1 heavy and light chains, part only) heavy, part: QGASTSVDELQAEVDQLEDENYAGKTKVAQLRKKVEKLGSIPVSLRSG light, part: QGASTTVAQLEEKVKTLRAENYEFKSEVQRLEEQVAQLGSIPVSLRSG has what recorded Binding Bmax (OD450)?
1.3 OD450

Sample Vel-IPV-Ab1 Coil 107 (antibody, part only; not given: Ab1 heavy and light chains, part only) heavy, part: QGASTSVDELQAEVDQLEDENYASKTKVAQLRKKVEKLGSIPVSLRSG light, part: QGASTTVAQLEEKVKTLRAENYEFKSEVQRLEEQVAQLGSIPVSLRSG — what was its Binding Bmax (OD450)?
0.6 OD450
